- Test system: S. aureus ATCC 29213
- measurement-notes: MIC, broth microdilution
- Assay type: cell-based, Staphylococcus aureus
- settings: Staphylococcus aureus, ATCC29213; Table 7; planktonic cells of S. aureus ATCC 29213; read-out: MIC
readout-label: MIC (µg/mL)
One number for each entry, in µg/mL.

Examples from the recorded data:
[[record]]
compound = "CCCCCCCOc1cccc(NC(=O)OC(CN(CCC)CCC)CN2CCCC2)c1.Cl.Cl (stereo not drawn)"
readout_label = "MIC"
readout_number = 8

[[record]]
compound = "CCCCCOc1cccc(NC(=O)OC(CN(CCC)CCC)CN2CCCC2)c1.Cl.Cl (stereo not drawn)"
readout_label = "MIC"
readout_number = 16

[[record]]
compound = "CCCCCCOc1cccc(NC(=O)OC(CN(CCC)CCC)CN2CCCC2)c1.Cl.Cl (stereo not drawn)"
readout_label = "MIC"
readout_number = 8


Please find the next compound below.
Entry CCCCCCCCCCCCCCCC[N+](C)(C)Cc1ccccc1 [CTC, cetalkonium chloride, reference compound] : reported MIC = ?
0.25

Ref: paper PMC7168207
